// data source = patent US12662489B2

IC50 overview
Molecular target: MTHFD2 recombinant human enzyme (Homo sapiens, UniProt P13995)
Sequence (P13995 36-350): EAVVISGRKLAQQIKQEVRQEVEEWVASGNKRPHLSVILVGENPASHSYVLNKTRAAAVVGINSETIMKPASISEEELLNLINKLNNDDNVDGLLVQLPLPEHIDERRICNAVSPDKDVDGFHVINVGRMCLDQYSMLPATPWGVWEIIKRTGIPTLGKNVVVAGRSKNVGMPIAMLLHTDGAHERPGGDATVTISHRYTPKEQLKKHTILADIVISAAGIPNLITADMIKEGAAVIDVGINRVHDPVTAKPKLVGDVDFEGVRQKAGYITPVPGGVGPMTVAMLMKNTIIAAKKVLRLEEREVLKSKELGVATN
Assay: MTHFD2 inhibition assay (NAD(P)H-Glo luminescence)

compound	measured parameter	result
COC[C@H]1CN(c2cc(C)c3c4c(c(=O)oc3c2C)CN(C(=O)c2ccc(C(=O)NS(=O)(=O)C3(C)CC3)c(N3CCC[C@H]3C)c2)CC4)CCN1C	IC50	10 to 100 nM
COC[C@H]1CN(c2cc(C)c3c4c(c(=O)oc3c2C)CN(C(=O)c2cc(OC)c(C(=O)NS(=O)(=O)N3CCCC3)cc2F)CC4)CCN1C	IC50	1 to 10 nM

Read the entry `COC[C@H]1CN(c2cc(Cl)c3c4c(c(=O)oc3c2C)CN(C(=O)c2cc(OC3CC3)c(C(=O)NS(=O)(=O)N(C)C)cc2F)CC4)CCN1C` and write its reported IC50. 10 to 100 nM

Read the entry COC[C@H]1CN(c2cc(C)c3c4c(c(=O)oc3c2C)CN(C(=O)c2ccc(C(=O)NS(=O)(=O)N3CCCC3)c(N3CC5CC5C3)c2F)CC4)CCN1C (stereo partly shown) and write its reported IC50. 100 to 1000 nM

Read the entry COC[C@H]1CN(c2cc(C)c3c4c(c(=O)oc3c2C)CN(C(=O)c2ccc(C(=O)NS(=O)(=O)C3(C)CC3)c(N3CC5CC5C3)c2)CC4)CCN1C (stereo partly shown) and write its reported IC50. 1 to 10 nM

Read the entry `COC[C@H]1CN(c2cc(C)c3c4c(c(=O)oc3c2C)CN(C(=O)c2cc(OC)c(C(=O)NS(=O)(=O)N3CCCC3)c(C(F)(F)F)c2)CC4)CCN1C` and write its reported IC50. 100 to 1000 nM

Read the entry `COC[C@H]1CN(c2ccc3c4c(c(=O)oc3c2C)CN(C(=O)c2cc(OC3CCCC3)c(C(=O)NS(=O)(=O)C3(C)CC3)c(C(F)(F)F)c2)CC4)CCN1C` and write its reported IC50. 100 to 1000 nM

Read the entry `COC[C@H]1CN(c2cc(C)c3c4c(c(=O)oc3c2C)CN(C(=O)c2cc(N3CCCC3)c(C(=O)NS(=O)(=O)N3CCCC3)cc2F)CC4)CCN1C` and write its reported IC50. 10 to 100 nM

Read the entry `COC[C@H]1CN(c2ccc3c4c(c(=O)oc3c2C)CN(C(=O)c2cc(OC3CCCC3)c(C(=O)NS(=O)(=O)N3CCCC3)c(C(F)(F)F)c2)CC4)CCN1C` and write its reported IC50. 100 to 1000 nM

Read the entry `COC[C@H]1CN(c2cc(C)c3c4c(c(=O)oc3c2C)CN(C(=O)c2cc(N(C)C)c(C(=O)NS(=O)(=O)N3C5CCC3COC5)cc2F)CC4)CCN1C` and write its reported IC50. 1 to 10 nM

Read the entry `COC[C@H]1CN(c2cc(Cl)c3c4c(c(=O)oc3c2C)CN(C(=O)c2cc(N(C)C)c(C(=O)NS(=O)(=O)N3CCCCC35COC5)cc2F)CC4)CCN1C` and write its reported IC50. 10 to 100 nM

Read the entry `COC[C@H]1CN(c2cc(C)c3c4c(c(=O)oc3c2C)CN(C(=O)c2ccc(C(=O)NS(=O)(=O)C3(C)CC3)c(OC3CCC3)c2C)CC4)CCN1C` and write its reported IC50. 10 to 100 nM

Read the entry COC[C@H]1CN(c2cc(C)c3c4c(c(=O)oc3c2C)CN(C(=O)c2ccc(C(=O)NS(=O)(=O)N(C)C)c(OC3C[C@@H]5C[C@@H]5C3)c2)CC4)CCN1C (mixture of isomers) and write its reported IC50. 10 to 100 nM

Read the entry `COC[C@H]1CN(c2cc(Cl)c3c4c(c(=O)oc3c2C)CN(C(=O)c2cc(N(C)C)c(C(=O)NS(=O)(=O)N3CCC[C@@H]3COC)cc2F)CC4)CCN1C` and write its reported IC50. 10 to 100 nM

Read the entry `COC[C@H]1CN(c2ccc3c4c(c(=O)oc3c2Cl)CN(C(=O)c2ccc(C(=O)NS(=O)(=O)N3CCCC3)c(OC3CCCC3)c2F)CC4)CCN1C` and write its reported IC50. 10 to 100 nM

Read the entry `COC[C@H]1CN(c2cc(Cl)c3c4c(c(=O)oc3c2C)CN(C(=O)c2cc(N(C)C)c(C(=O)NS(=O)(=O)N3C5CCC3CC5)cc2F)CC4)CCN1C` and write its reported IC50. 10 to 100 nM

Read the entry `COC[C@H]1CN(c2cc(C)c3c4c(c(=O)oc3c2C)CN(C(=O)c2ccc(C(=O)NS(=O)(=O)N3CCCC3)c(N3CCCC3)c2F)CC4)CCN1C` and write its reported IC50. 1 to 10 nM

Read the entry `[2H]C([2H])([2H])Oc1cc(C(=O)N2CCc3c(c(=O)oc4c(C)c(N5CCN(C)[C@@H](COC)C5)cc(Cl)c34)C2)c(F)cc1C(=O)NS(=O)(=O)N1C2CCC1CC2` and write its reported IC50. 1 to 10 nM

Read the entry CCOc1c(C(=O)NS(=O)(=O)N2CC3CC3C2)ccc(C(=O)N2CCc3c(c(=O)oc4c(CC)c(N5CCN(C)[C@@H](COC)C5)ccc34)C2)c1F (stereo partly shown) and write its reported IC50. 10 to 100 nM

Read the entry `COC[C@H]1CN(c2cc(C)c3c4c(c(=O)oc3c2C)CN(C(=O)c2ccc(C(=O)NS(=O)(=O)N(C)C)c(N3CCCC(F)(F)C3)c2)CC4)CCN1C` and write its reported IC50. 1 to 10 nM

Read the entry `COC[C@H]1CN(c2cc(C)c3c4c(c(=O)oc3c2C)CN(C(=O)c2cc(N(C)C)c(C(=O)NS(=O)(=O)N3CC5(CCC5)C3)cc2F)CC4)CCN1C` and write its reported IC50. 1 to 10 nM

Read the entry `COC[C@H]1CN(c2cc(C)c3c4c(c(=O)oc3c2)CN(C(=O)c2ccc(C(=O)NS(=O)(=O)N3CCCC3)c(OC3CCCC3)c2F)CC4)CCN1C` and write its reported IC50. 100 to 1000 nM
